Tested on: C3 mRNA
Experiment: Complement gene mRNA expression, TaqMan real-time PCR, Huh-7 cells
Format: cell-based, human
Settings: Homo sapiens; Huh-7, 48 h treatment; read-out: C3 (48 h) mRNA, half maximal inhibitory concentration (IC50)
valueType: IC50 (nM)
Give bare numbers, in nM.

> print(dat)
                                   compound  reading
1  COc1cc(OC)c2c(=O)[nH]c(-c3ccc(N4CCN(C(C)C)CC4)cc3)nc2c1 [RVX002109]    34800
2  COc1cc(OC)c2c(=O)[nH]c(-c3cc(C)c(OCCNC(C)C)c(C)c3)nc2c1 [RVX002135]     2200
3  COc1cc(OC)c2c(=O)[nH]c(-c3cc(C)c(OCCO)c(C)c3)nc2c1 [RVX000222]     1900

Quick batch: IC50 for everything below.
1. COc1cc(OC)c2c(=O)[nH]c(-c3cc(C)c(OCCN4CCCC4)c(C)c3)nc2c1 [RVX000297]
2. Cc1sc2c(c1C)C(c1ccc(Cl)cc1)=N[C@@H](CC(=O)OC(C)(C)C)c1nnc(C)n1-2 [JQ1, reference compound]

A:
4700
200

---

Please provide measured IC50 for the entries that follow.
System: C5 mRNA
Experiment: Complement gene mRNA expression, TaqMan real-time PCR, Huh-7 cells
Type: cell-based, human
Conditions: Homo sapiens, read-out: C5 (72 h) mRNA, half maximal inhibitory concentration (IC50); Huh-7, 72 h treatment
Give bare numbers, in µM.

Quick batch: IC50 for everything below.
1. COc1cc(OC)c2c(=O)[nH]c(-c3cc(C)c(OCCO)c(C)c3)nc2c1
2. Cc1sc2c(c1C)C(c1ccc(Cl)cc1)=N[C@@H](CC(=O)OC(C)(C)C)c1nnc(C)n1-2 [JQ1, reference compound]

A:
1. 21.8
2. 0.27
